Consider the following compounds and their measured CC50 at 1 hour readings.
Experiment: MTS cytotoxicity assay
Type: cell-based
Conditions: human, HaCaT cells
Residues, ends and D or L forms follow the SMILES beside them.
PROPERTY: CC50 at 1 hour (µM)

* CC[C@H](C)[C@H](NC(=O)[C@H](CCCCN)NC(=O)[C@H](CCCCN)NC(=O)[C@H](CC(C)C)NC(=O)[C@H](Cc1c[nH]c2ccccc12)NC(=O)[C@H](Cc1c[nH]c2ccccc12)NC(=O)[C@@H](N)Cc1c[nH]c2ccccc12)C(=O)N[C@@H](Cc1c[nH]c2ccccc12)C(N)=O [TetraF2W-KK, WWWLKKIW] (H-WWWLKKIW-NH2; N-terminus and C-terminus assumed) | 50
* CC[C@H](C)[C@H](NC(=O)[C@H](CCCNC(=N)N)NC(=O)[C@H](CCCCN)NC(=O)[C@H](CC(C)C)NC(=O)[C@H](Cc1c[nH]c2ccccc12)NC(=O)[C@H](Cc1c[nH]c2ccccc12)NC(=O)[C@@H](N)Cc1c[nH]c2ccccc12)C(=O)N[C@@H](Cc1c[nH]c2ccccc12)C(N)=O [TetraF2W-KR, WWWLKRIW] (H-WWWLKRIW-NH2; N-terminus and C-terminus assumed) | 60
* CC[C@H](C)[C@H](NC(=O)[C@H](CCCNC(=N)N)NC(=O)[C@H](CCCNC(=N)N)NC(=O)[C@H](CC(C)C)NC(=O)[C@H](Cc1c[nH]c2ccccc12)NC(=O)[C@H](Cc1c[nH]c2ccccc12)NC(=O)[C@@H](N)Cc1c[nH]c2ccccc12)C(=O)N[C@@H](Cc1c[nH]c2ccccc12)C(N)=O [TetraF2W-RR, WWWLRRIW] (H-WWWLRRIW-NH2; N-terminus assumed) | 70
* CC[C@H](C)[C@H](NC(=O)[C@H](CCCCN)NC(=O)[C@H](CCCNC(=N)N)NC(=O)[C@H](CC(C)C)NC(=O)[C@H](Cc1c[nH]c2ccccc12)NC(=O)[C@H](Cc1c[nH]c2ccccc12)NC(=O)[C@@H](N)Cc1c[nH]c2ccccc12)C(=O)N[C@@H](Cc1c[nH]c2ccccc12)C(N)=O [TetraF2W-RK, WWWLRKIW] (H-WWWLRKIW-NH2; N-terminus assumed) | 60

* * *

// values below are reported E. coli (MIC)
Test system: E. coli ATCC 25922
Type: cell-based, Escherichia coli
Settings: ATCC 25922, 20 h
Residues, ends and D or L forms follow the SMILES beside them.
PROPERTY: E. coli (MIC) (µM)

• CC[C@H](C)[C@H](NC(=O)[C@H](CCCNC(=N)N)NC(=O)[C@H](CCCNC(=N)N)NC(=O)[C@H](CCCNC(=N)N)NC(=O)[C@H](Cc1c[nH]c2ccccc12)NC(=O)[C@H](Cc1c[nH]c2ccccc12)NC(=O)[C@@H](N)Cc1c[nH]c2ccccc12)C(=O)N[C@@H](Cc1c[nH]c2ccccc12)C(N)=O [Peptide L4R, WWWRRRIW] (H-WWWRRRIW-NH2; N-terminus assumed) = 25
• CC[C@H](C)[C@H](NC(=O)[C@H](CCCNC(=N)N)NC(=O)[C@H](CCCNC(=N)N)NC(=O)[C@H](CC(C)C)NC(=O)[C@H](Cc1c[nH]c2ccccc12)NC(=O)[C@H](Cc1c[nH]c2ccccc12)NC(=O)[C@@H](N)Cc1c[nH]c2ccccc12)C(=O)N[C@@H](CCCNC(=N)N)C(N)=O [Peptide W8R, WWWLRRIR] (H-WWWLRRIR-NH2; N-terminus assumed) = 25
• CC[C@H](C)[C@H](NC(=O)[C@H](CCCNC(=N)N)NC(=O)[C@H](CCCNC(=N)N)NC(=O)[C@H](CC(C)C)NC(=O)[C@H](CCCNC(=N)N)NC(=O)[C@H](Cc1c[nH]c2ccccc12)NC(=O)[C@@H](N)Cc1c[nH]c2ccccc12)C(=O)N[C@@H](Cc1c[nH]c2ccccc12)C(N)=O [Peptide W3R, WWRLRRIW] (H-WWRLRRIW-NH2; N-terminus assumed) = 25
• CC[C@H](C)[C@H](NC(=O)[C@H](CCCNC(=N)N)NC(=O)[C@H](CCCNC(=N)N)NC(=O)[C@H](CC(C)C)NC(=O)[C@H](Cc1c[nH]c2ccccc12)NC(=O)[C@H](Cc1c[nH]c2ccccc12)NC(=O)[C@@H](N)Cc1c[nH]c2ccccc12)C(=O)N[C@@H](Cc1c[nH]c2ccccc12)C(N)=O [TetraF2W-RR, WWWLRRIW] (H-WWWLRRIW-NH2; N-terminus assumed) = 6.2
• CC(C)C[C@H](NC(=O)[C@H](Cc1c[nH]c2ccccc12)NC(=O)[C@H](Cc1c[nH]c2ccccc12)NC(=O)[C@@H](N)Cc1c[nH]c2ccccc12)C(=O)N[C@@H](CCCNC(=N)N)C(=O)N[C@@H](CCCNC(=N)N)C(=O)N[C@@H](CCCNC(=N)N)C(=O)N[C@@H](Cc1c[nH]c2ccccc12)C(N)=O [Peptide I7R, WWWLRRRW] (H-WWWLRRRW-NH2; N-terminus assumed) = 6.2
• CC[C@H](C)[C@H](NC(=O)[C@H](CCCNC(=N)N)NC(=O)[C@H](CCCNC(=N)N)NC(=O)[C@H](CC(C)C)NC(=O)[C@H](Cc1c[nH]c2ccccc12)NC(=O)[C@H](CCCNC(=N)N)NC(=O)[C@@H](N)Cc1c[nH]c2ccccc12)C(=O)N[C@@H](Cc1c[nH]c2ccccc12)C(N)=O [Peptide W2R, WRWLRRIW] (H-WRWLRRIW-NH2; N-terminus assumed) = 25
• CC[C@H](C)[C@H](NC(=O)[C@H](CCCNC(=N)N)NC(=O)[C@H](CCCNC(=N)N)NC(=O)[C@H](CC(C)C)NC(=O)[C@H](Cc1c[nH]c2ccccc12)NC(=O)[C@H](Cc1c[nH]c2ccccc12)NC(=O)[C@@H](N)CCCNC(=N)N)C(=O)N[C@@H](Cc1c[nH]c2ccccc12)C(N)=O [Peptide W1R, RWWLRRIW] (H-RWWLRRIW-NH2; N-terminus assumed) = 25

* * *

Experiment: Hemolytic assay
Assay type: cell-based
Settings: human, red blood cells; hemolysis; read-out: LC50 Human RBCs
Residues, ends and D or L forms follow the SMILES beside them.
PROPERTY: HC50 at 1 hour (µM)

* CC[C@H](C)[C@H](NC(=O)[C@H](CCCNC(=N)N)NC(=O)[C@H](CCCNC(=N)N)NC(=O)[C@H](CC(C)C)NC(=O)[C@H](Cc1c[nH]c2ccccc12)NC(=O)[C@H](Cc1c[nH]c2ccccc12)NC(=O)[C@@H](N)Cc1c[nH]c2ccccc12)C(=O)N[C@@H](Cc1c[nH]c2ccccc12)C(N)=O [TetraF2W-RR, WWWLRRIW] (H-WWWLRRIW-NH2; N-terminus assumed) | 20
* CC[C@H](C)[C@H](NC(=O)[C@H](CCCCN)NC(=O)[C@H](CCCNC(=N)N)NC(=O)[C@H](CC(C)C)NC(=O)[C@H](Cc1c[nH]c2ccccc12)NC(=O)[C@H](Cc1c[nH]c2ccccc12)NC(=O)[C@@H](N)Cc1c[nH]c2ccccc12)C(=O)N[C@@H](Cc1c[nH]c2ccccc12)C(N)=O [TetraF2W-RK, WWWLRKIW] (H-WWWLRKIW-NH2; N-terminus assumed) | 30

* * *

System: Candida albicans ATCC 10231
Assay type: cell-based
Details: ATCC 10231, 48 h
Residues, ends and D or L forms follow the SMILES beside them.
PROPERTY: MIC Candida albicans (µM)

- CC[C@H](C)[C@H](NC(=O)[C@H](CCCCN)NC(=O)[C@H](CCCCN)NC(=O)[C@H](CC(C)C)NC(=O)[C@H](Cc1c[nH]c2ccccc12)NC(=O)[C@H](Cc1c[nH]c2ccccc12)NC(=O)[C@@H](N)Cc1c[nH]c2ccccc12)C(=O)N[C@@H](Cc1c[nH]c2ccccc12)C(N)=O [TetraF2W-KK, WWWLKKIW] (H-WWWLKKIW-NH2; N-terminus and C-terminus assumed): 6.2
- CC[C@H](C)[C@H](NC(=O)[C@H](CCCNC(=N)N)NC(=O)[C@H](CCCNC(=N)N)NC(=O)[C@H](CC(C)C)NC(=O)[C@H](Cc1c[nH]c2ccccc12)NC(=O)[C@H](Cc1c[nH]c2ccccc12)NC(=O)[C@@H](N)Cc1c[nH]c2ccccc12)C(=O)N[C@@H](Cc1c[nH]c2ccccc12)C(N)=O [TetraF2W-RR, WWWLRRIW] (H-WWWLRRIW-NH2; N-terminus assumed): 25
- CC[C@H](C)[C@H](NC(=O)[C@H](CCCNC(=N)N)NC(=O)[C@H](CCCCN)NC(=O)[C@H](CC(C)C)NC(=O)[C@H](Cc1c[nH]c2ccccc12)NC(=O)[C@H](Cc1c[nH]c2ccccc12)NC(=O)[C@@H](N)Cc1c[nH]c2ccccc12)C(=O)N[C@@H](Cc1c[nH]c2ccccc12)C(N)=O [TetraF2W-KR, WWWLKRIW] (H-WWWLKRIW-NH2; N-terminus and C-terminus assumed): 12.5
